targetDesc: T1, Anti-PSMA Fab (SEQ ID NOs: 19, 20)
T1 construct: Biotinylated Fab captured on neutravidin coated plates in the phage ELISA; also called 006 PSMA Fab
assayProcedure: phage binding ELISA; clonal phage on biotinylated PSMA Fab captured on neutravidin plates, anti-M13 HRP detection
propertyLabel: Anti-PSMA Fab (SEQ ID NOs: 19, 20) signal

Qu. Look up and report measured Anti-PSMA Fab (SEQ ID NOs: 19, 20) signal for this entry: LEKLCIPAWMCEWL [Phage-1765]
Ans. 2.4

Qu. Fill in reported Anti-PSMA Fab (SEQ ID NOs: 19, 20) signal for this entry: LCQWYPKFHWMDCD (also called Peptide-210) [Phage-1760]
Ans. 0.611

Qu. Report Anti-PSMA Fab (SEQ ID NOs: 19, 20) signal for HVKLCKPAWMCQGL [Phage-1769]
Ans. 2.18

Qu. Tell me measured Anti-PSMA Fab (SEQ ID NOs: 19, 20) signal for HCEFHDYQSCDVLY [Phage-1761] please.
Ans. 1.89
